test: A High-Content qHTS Against Drug Library for the Identification of Small Molecules that Inhibit DYT1 Early Onset Primary Dystonia-Associated Cell Pathology (AID 1645839); settings: HEK293 Flp-In EGFP-delE TorsinA, punctate imaging, 48 h; series mostly up to 46.1 µM
Inconclusive results are not listed. Active and inactive are the calls of the source. Calls follow the shape of the full dose curve.
parameter: % pathology change, negative = correction

>>> endpoint_result("CCCCCC(C)N (configuration not stated)")
"inactive"
>>> endpoint_result("CCN[C@H]1CN(CCCOC)S(=O)(=O)c2sc(S(N)(=O)=O)cc21")
"inactive"
>>> endpoint_result("CC(CN(C)C)C(C)(O)Cc1ccc(Cl)cc1 (configuration not stated)")
"inactive"
>>> endpoint_result("O=C(Cn1ccnc1[N+](=O)[O-])NCCO")
"inactive"
>>> endpoint_result("CC1CCN(CCCC(=O)c2ccc(F)cc2)CC1")
"inactive"

For this molecule ( "Cc1c(I)c(=O)n(-c2ccccc2)n1C" ), measured % pathology change, negative = correction is inactive

For this molecule ( "OCc1ccc(Cl)cc1Cl" ), measured % pathology change, negative = correction is inactive

---

experiment: qHTS assay for cell viability of HEK293 cells (AID 743288); conditions: ATP luminescence (CellTiter-Glo), 18 h, stronger effect = lower value; also: % is scaled to controls: 0 for no effect and ±100 for the full control effect; nearly all actives have a fitted effect of over 50% in size
Records with an inconclusive call do not appear.
parameter: max response (%)
Reply with just the number (in %).

For this molecule ( "O=C1c2cccc(O)c2C(=O)c2c(O)cccc21" ), measured max response is -10.2

For this molecule ( "OC[C@@H](O)[C@@H](O)[C@H](O)[C@H](O)CO" ), measured max response is -10.6

For this molecule ( CCCC(O)C(CC)CO (stereo unspecified) ), measured max response is -0.929

For this molecule ( "COc1ccc(O)cc1" ), measured max response is -0.79

For this molecule ( "CCCCOC(=O)c1ccc(N)cc1" ), measured max response is 3.29

For this molecule ( "CC(=O)Nc1cccc(O)c1" ), measured max response is -4.32

For this molecule ( "Cc1ccc(C(C)C)c(O)c1" ), measured max response is -16.2

For this molecule ( CC1CC(OC(=O)c2ccccc2O)CC(C)(C)C1 (stereo unspecified) ), measured max response is -5.44

For this molecule ( "O=C(OOC(=O)c1ccccc1)c1ccccc1" ), measured max response is -11.7

For this molecule ( "CC(=O)NS(=O)(=O)c1ccc(N)cc1" ), measured max response is -3.22

For this molecule ( "Cc1cc(O)cc(C)c1Cl" ), measured max response is -9.96

For this molecule ( "CC(C)=CCC/C(C)=C/CO" ), measured max response is 0.933

For this molecule ( "CCCCCCCC(=O)OCC(COC(=O)CCCCCCC)OC(=O)CCCCCCC" ), measured max response is -8.85

For this molecule ( "CCCCCCCCCCCCCCCCCCO" ), measured max response is -6.21

For this molecule ( "Cc1cc(=O)[nH]c(=S)[nH]1" ), measured max response is -3.4

For this molecule ( "CCCCCC(N)=O" ), measured max response is 7.6

---

assay: Drug repurposing screens with cells derived from glioblastoma tumor samples (AID 1345199); settings: GBM patient neurospheres viability, ATP luminescence, 48 h; at 21.2 µM (top of the series); tumour line D; also: % is scaled to controls: 0 for no effect and ±100 for the full control effect; nearly all actives have a fitted effect of over 40% in size
Inconclusive results are not listed.
For each record, check the reported activity, negative = cell killing: if it is below -10% write MET, else write NOT MET.

Below -10% on activity, negative = cell killing? Entry NC(=O)NC1NC(=O)NC1=O (configuration not stated)
MET

Below -10% on activity, negative = cell killing? Entry COc1ccccc1OCC(O)CO (configuration not stated)
MET

Below -10% on activity, negative = cell killing? Entry "CC(C)(C)C(=O)OCOC(=O)[C@@H]1N2C(=O)[C@@H](NC(=O)[C@H](N)c3ccccc3)[C@H]2SC1(C)C"
MET

Below -10% on activity, negative = cell killing? Entry NS(=O)(=O)c1cc(C2(O)NC(=O)c3ccccc32)ccc1Cl (configuration not stated)
MET

Below -10% on activity, negative = cell killing? Entry "CC(=O)SC[C@@H](Cc1ccccc1)C(=O)NCC(=O)OCc1ccccc1"
NOT MET

Below -10% on activity, negative = cell killing? Entry "NCc1ccc(S(N)(=O)=O)cc1"
NOT MET

Below -10% on activity, negative = cell killing? Entry CCC(C)(CN(C)C)OC(=O)c1ccccc1 (configuration not stated)
NOT MET

Below -10% on activity, negative = cell killing? Entry "CC1(C)[C@@H](OC(=O)CCC(=O)O)CC[C@]2(C)[C@H]3C(=O)C=C4[C@@H]5C[C@@](C)(C(=O)O)CC[C@]5(C)CC[C@@]4(C)[C@]3(C)CC[C@@H]12"
MET

Below -10% on activity, negative = cell killing? Entry "COc1ccc(NS(=O)(=O)c2ccc(N)cc2)nn1"
NOT MET

Below -10% on activity, negative = cell killing? Entry CC(C)(C)NCC(O)COc1cccc2c1CCC(=O)N2 (configuration not stated)
NOT MET

Below -10% on activity, negative = cell killing? Entry OC(CCN1CCCC1)(c1ccccc1)C1CCCCC1 (configuration not stated)
MET

Below -10% on activity, negative = cell killing? Entry COCC(=O)Nc1c(I)c(C(=O)NCC(O)CO)c(I)c(C(=O)N(C)CC(O)CO)c1I (configuration not stated)
NOT MET

---

experiment: Drug repurposing screens with cells derived from glioblastoma tumor samples (AID 1345199); conditions: GBM patient neurospheres viability, ATP luminescence, 48 h; at 46 µM (top of the series); tumour line A; also: % is scaled to controls: 0 for no effect and ±100 for the full control effect; nearly all actives have a fitted effect of over 40% in size
Results filed as inconclusive are left out.
parameter: activity, negative = cell killing (%)
Reply with just the number (in %).

For this compound ( C=CCSCC1Nc2cc(Cl)c(S(N)(=O)=O)cc2S(=O)(=O)N1 (configuration not stated) ), measured activity, negative = cell killing is -17.1

For this compound ( "COc1nccnc1NS(=O)(=O)c1ccc(N)cc1" ), measured activity, negative = cell killing is -24.3

For this compound ( FC(F)(F)C(Cl)Br (configuration not stated) ), measured activity, negative = cell killing is -22.4

For this compound ( "CCc1nnc(NS(=O)(=O)c2ccc(N)cc2)s1" ), measured activity, negative = cell killing is -28.8

For this compound ( "OC[C@@H](O)[C@@H](O)[C@H](O)[C@H](O)CO" ), measured activity, negative = cell killing is -11.8

For this compound ( "Cc1c(C(=O)NCCO)[n+](=O)c2ccccc2n1[O-]" ), measured activity, negative = cell killing is -29.3

For this compound ( CC(O)CCCCn1c(=O)c2c(ncn2C)n(C)c1=O (configuration not stated) ), measured activity, negative = cell killing is -31.9

For this compound ( "COc1cc(C(=O)NCCCCCC(=O)O)cc(OC)c1OC" ), measured activity, negative = cell killing is -18.3

For this compound ( CC(C)CCCC(C)CCCC(C)CCCCC(C)CCCC(C)CCCC(C)C (configuration not stated) ), measured activity, negative = cell killing is -12.7

For this compound ( "Cc1ncc(CO)c(CN)c1O" ), measured activity, negative = cell killing is -23.9

For this compound ( "CC(=O)N[C@H]1[C@H]([C@H](O)[C@H](O)CO)OC(C(=O)O)=C[C@@H]1N=C(N)N" ), measured activity, negative = cell killing is -22.1

For this compound ( "O=C(Cn1ccnc1[N+](=O)[O-])NCc1ccccc1" ), measured activity, negative = cell killing is -20.7

---

Tested on: ICS
Assay: qHTS profiling for inhibitors of Plasmodium falciparum proliferation (AID 504749); also: nearly all actives have a fitted effect of over 60% in size
Details: P. falciparum in erythrocytes, SYBR Green DNA, 72 h; series mostly up to 28.7 µM
Description: NIH National Institute of Allergy and Infectious Diseases [NIAID] NIH Chemical Genomics Center [NCGC] […] Because mature erythrocytes lack DNA, only Plasmodium-derived DNA is detected. NCGC Assay Protocol Summary: The SYBR Green viability assay was adapted from a method described previously (Plouffe et al., 2008). […] The following morning, fluorescence intensity at 485(14) nm excitation and 535(25) nm emission wavelengths was measured on an EnVision (Perkin Elmer) plate reader. […]
Records with an inconclusive call do not appear. Activity calls are given as the source filed them. The call rests on the fitted dose curve; in most records, active means well fitted inhibition curve with a large enough effect; inconclusive means small, poorly fitted or top-dose-only effect; inactive means flat fitted curve, though single readings scatter.
The reply should name one outcome from 1 for active, 0 for inactive

Call for entry "Cc1cc(NC(=O)C2=C(O)c3ccccc3S(=O)(=O)N2C)no1" :
0

Call for entry "CCS(=O)(=O)CCn1c([N+](=O)[O-])cnc1C" :
0

Call for entry "Cc1ccc(S(=O)(=O)NC(=O)NC2CCCCC2)cc1" :
0

Call for entry "C[C@H]1COc2c(C3(N)CC3)c(F)cc3c(=O)c(C(=O)O)cn1c23" :
0

Call for entry "O=S1(=O)OC(c2ccc(O)cc2)(c2ccc(O)cc2)c2ccccc21" :
0

Call for entry "CC(=O)N[C@@H](Cc1ccc(O)cc1)C(=O)O" :
0

Call for entry "C[N+](C)(C)CC[N+]1(C)Cc2c(Cl)c(Cl)c(Cl)c(Cl)c2C1" :
0

Call for entry "Cc1ccsc1C(=CCCN1CCC[C@@H](C(=O)O)C1)c1sccc1C" :
0

Call for entry "O=C1c2ccccc2C(=O)C1c1ccc(Br)cc1" :
1

Call for entry "Nc1ccncc1N" :
0

Call for entry "O=C(CCBr)N1CCN(C(=O)CCBr)CC1" :
0

Call for entry "COc1cc(C(=O)NCCCCCC(=O)O)cc(OC)c1OC" :
0
